Test system: ENR+CD organoids
MEASUREMENT_DESCRIPTION: Primary screen: ATP (CellTiter-Glo 3D, CTG) cell number/viability, 2.5-D 384-well ENR+CD organoids;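 note: compounds given at plating and again on day 3 over a 6-day differentiation from ENR+CV stem-cell-enriched precursors, ATP measured on day 6, plate median as control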
MEASUREMENT_PARAMETERS: primary screen, dose 2.00 uM
Recorded Z.CTG (standard z score) for the following compounds
Output spec: single numeric token, no unit.

Sample answers from the record:
COMPOUND	MEASURED_PARAMETER	REPORTED_VALUE
CN1CCc2cc3c(cc2[C@H]1[C@@H]1OC(=O)c2c1ccc1c2OCO1)OCO3 [(+)-Bicuculline]	Z.CTG (standard z score)	−0.396
CC(/C=C/C(=O)NO)=C\[C@@H](C)C(=O)c1ccc(N(C)C)cc1	Z.CTG (standard z score)	−2.159
CC(C)c1onc(-c2c(Cl)cccc2Cl)c1COc1ccc(/C=C/c2cccc(C(=O)O)c2)c(Cl)c1	Z.CTG (standard z score)	−0.346

// next item, Z.CTG (standard z score) requested
Form: compound = CC(C)c1c(C(=O)Nc2ccccc2)c(-c2ccccc2)c(-c2ccc(F)cc2)n1CC[C@@H](O)C[C@@H](O)CC(=O)[O-].CC(C)c1c(C(=O)Nc2ccccc2)c(-c2ccccc2)c(-c2ccc(F)cc2)n1CC[C@@H](O)C[C@@H](O)CC(=O)[O-].[Ca+2] ; Z.CTG (standard z score) = −2.591

---

System: ENR+CD organoids (ISC to Paneth cell differentiation)
MEASUREMENT_DESCRIPTION: Primary screen: CCh-stimulated lysozyme secretion LYZ.S, 2.5-D 384-well ENR+CD organoid differentiation
Assay type: cell-based, mouse
MEASUREMENT_PARAMETERS: primary screen; dose 10.00 uM; FC vs plate median
Source text: High-throughput screening.
Structures can show the parent of a compound that is named as a salt.
Values of Dose.FC.LYZ.S strictly less than 0.001 log2 fold change map to Y, and values of at least 0.001 log2 fold change map to N.

>>> print(df.to_string())
                                   compound                         target_under_test  discrete_label
0  CN1C(=O)C(Cc2c[nH]c3ccccc23)NC1=S (centres unmarked)  ENR+CD organoids (ISC to Paneth cell differentiation)               N
1  O=C1CC[C@@]2(O)[C@H]3Cc4ccc(O)c5c4[C@@]2(CCN3CC2CC2)[C@H]1O5 [Naltrexone HCl]  ENR+CD organoids (ISC to Paneth cell differentiation)               N
2  CC(C)C[C@H](NC(=O)CNC(=O)c1cc(Cl)ccc1Cl)B(O)O  ENR+CD organoids (ISC to Paneth cell differentiation)               Y

Check if Dose.FC.LYZ.S falls below 0.001 log2 fold change for OCCn1cc(-c2cnc3nnn(Cc4ccc5ncccc5c4)c3n2)cn1 . N

Input CC(C)(Cc1ccc2ccccc2c1)NC[C@@H](O)COc1cccc(Cl)c1C#N ; condition: Dose.FC.LYZ.S strictly below 0.001 log2 fold change. Does it hold? Y

Threshold test, Dose.FC.LYZ.S < 0.001 log2 fold change: O=C(NCCN1CCOCC1)c1ccc(Cl)cc1 [Moclobemide (Ro 111163)] N

Consider COC(=O)C1=C(C#N)NC(C)=C(C(=O)OC(C)C)C1c1cccc([N+](=O)[O-])c1 (centres unmarked) . Does its Dose.FC.LYZ.S lie strictly below 0.001 log2 fold change? Y

src = patent US20220323406A1
